Tested on: AMPK-alpha1;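 note: KINOMEscan kinase panel screen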
Construct: gene PRKAA1
Test Context: concentration: 1 μM, replicates: in singlicate; n = 1
Please provide measured %Inh for the entries that follow.
Use % as the unit, but write only the number.

**Query** Look up and report measured %Inh for this entry: Fc1cc(Cl)ccc1Nc1ccnc2cc(-c3ccc(CN4CCSCC4)o3)ccc12 [GW560106]
**Result** 3

**Query** Fill in reported %Inh for this entry: Cl.Cl.NCC(NC(=O)c1cc(-c2cccnc2)c(-c2ccnc3[nH]ccc23)s1)c1ccccc1 (stereo not drawn) [GSK1323434]
**Result** 0

**Query** Retrieve %Inh measured for COc1cccc2c(-c3ccncc3)c(-c3ccc(F)cc3)nn12 [GW468513] and print it.
**Result** 0

**Query** State, in one line, measured %Inh of O=C(Nc1n[nH]c2cc(-c3cccs3)ccc12)C1CC1 [SB-731284]
**Result** 0

**Query** Note %Inh for the compound shown: NCCC(NC(=O)c1cc(Br)c(-c2ccnc3[nH]ccc23)s1)c1ccccc1.O=C(O)C(F)(F)F.O=C(O)C(F)(F)F (stereo not drawn) [GSK1307810]
**Result** 52

**Query** Respond only with %Inh recorded for Cl.O=C(Nc1ccc(Oc2ccc3[nH]c(NC(=O)c4ccco4)nc3c2)cc1)Nc1cc(C(F)(F)F)ccc1F [GW683134]
**Result** 0

**Query** Report %Inh, nothing else, for this compound: COC(=O)Nc1nc2cc(Oc3ccc(NC(=O)Nc4cccc(SC)c4)cc3)ccc2[nH]1.Cl [GW697999]
**Result** 5

**Query** Output measured %Inh for this item: CCn1cnc2c(NCc3ccccc3)ncnc21 [SKF-96418]
**Result** 3

**Query** State its %Inh for this compound: CNc1nccc(-c2ccc3c(N)n[nH]c3c2)n1 [GSK2206003]
**Result** 0
